For each of the molecules below, state its viability.
- experiment_summary: reducers of endogenous Her2 protein level, primary screen, SKBR3 breast tumor cells, AlphaScreen, ATP viability (AID 461);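 also: percent of carrier control wells set as 100% viability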
- condition_details: 18-24 h, measured here: SKBR3 viability, ATP luminescence, at 10 µM
Give bare numbers, in %.

COc1ccccc1-c1cc(C(=O)Nc2cc(C)nn2-c2ccccc2)no1: 89
CC(CN1CCCCC1)OC(=O)c1ccc2c(c1)OCO2 (configuration not stated): 104
Cc1sc2nc(SCC(=O)NCc3ccco3)n(CCc3ccccc3)c(=O)c2c1C: 102

Please give viability for each item listed below.
1. O=S(=O)(NCC1CCCO1)c1ccc(S(=O)(=O)N2CCc3ccccc3C2)cc1 (configuration not stated)
2. CCOC(=O)N1CCN(Cc2ccccc2F)CC1
3. Cc1ccc(C)c(-n2c(Cc3cc(=O)[nH]c(=O)[nH]3)nnc2SCC(=O)NCc2ccco2)c1
4. Cc1ccccc1C(=O)NC1CCN(Cc2nnnn2Cc2ccccc2)CC1
5. CCOC(=O)C1CCCN(Cc2nc(N)nc(Nc3ccccc3)n2)C1 (configuration not stated)
6. COCCNC(=O)c1ccc(CS(=O)(=O)c2ccc(OC)cc2)o1

Result block:
90
102
131
93.5
100
97

Please give viability for each item listed below.
1. CC(C)(C)c1cc(NS(=O)(=O)c2ccc3c(c2)OCCO3)on1
2. Cc1nc(C)c2c(c1C(F)(F)F)-c1ccccc1C2(F)F
3. CCc1cc2c(=O)c(-c3nc4ccccc4[nH]3)coc2cc1OC(=O)N1CCOCC1
4. O=C(COc1ccccc1Cl)OCC(=O)N1CCN(S(=O)(=O)c2ccccc2)CC1
5. O=C1CN(C(=O)COC(=O)C23CC4CC(CC(O)(C4)C2)C3)c2ccccc2N1
6. Cc1cc(NCCN2CCOCC2)n2nc(C)c(-c3ccccc3)c2n1

Result block:
131
98
100
101
115
102
